Molecular target: T1, Cre recombinase monomer with Q311R mutation
T1 chain: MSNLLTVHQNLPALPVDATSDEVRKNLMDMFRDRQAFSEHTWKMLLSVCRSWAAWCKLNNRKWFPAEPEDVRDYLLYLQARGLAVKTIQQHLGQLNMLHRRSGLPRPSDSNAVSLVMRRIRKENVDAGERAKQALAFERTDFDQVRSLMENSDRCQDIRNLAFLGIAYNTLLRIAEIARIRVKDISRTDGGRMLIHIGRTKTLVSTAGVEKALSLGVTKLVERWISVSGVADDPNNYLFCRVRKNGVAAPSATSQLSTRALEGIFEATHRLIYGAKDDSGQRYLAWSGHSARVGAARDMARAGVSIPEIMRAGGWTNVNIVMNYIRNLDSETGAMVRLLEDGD
Below is a list of entries, each paired with its recorded Median dimer activity (recombination on loxP) value.
MEASURED PROPERTY: Median dimer activity (recombination on loxP)

PROTEIN	REPORTED RESULT
Cre recombinase monomer with R173L mutation (protein) MSNLLTVHQNLPALPVDATSDEVRKNLMDMFRDRQAFSEHTWKMLLSVCRSWAAWCKLNNRKWFPAEPEDVRDYLLYLQARGLAVKTIQQHLGQLNMLHRRSGLPRPSDSNAVSLVMRRIRKENVDAGERAKQALAFERTDFDQVRSLMENSDRCQDIRNLAFLGIAYNTLLLIAEIARIRVKDISRTDGGRMLIHIGRTKTLVSTAGVEKALSLGVTKLVERWISVSGVADDPNNYLFCRVRKNGVAAPSATSQLSTRALEGIFEATHRLIYGAKDDSGQRYLAWSGHSARVGAARDMARAGVSIPEIMQAGGWTNVNIVMNYIRNLDSETGAMVRLLEDGD	94%
Cre recombinase monomer with K201N mutation (protein) MSNLLTVHQNLPALPVDATSDEVRKNLMDMFRDRQAFSEHTWKMLLSVCRSWAAWCKLNNRKWFPAEPEDVRDYLLYLQARGLAVKTIQQHLGQLNMLHRRSGLPRPSDSNAVSLVMRRIRKENVDAGERAKQALAFERTDFDQVRSLMENSDRCQDIRNLAFLGIAYNTLLRIAEIARIRVKDISRTDGGRMLIHIGRTNTLVSTAGVEKALSLGVTKLVERWISVSGVADDPNNYLFCRVRKNGVAAPSATSQLSTRALEGIFEATHRLIYGAKDDSGQRYLAWSGHSARVGAARDMARAGVSIPEIMQAGGWTNVNIVMNYIRNLDSETGAMVRLLEDGD	95%
Cre recombinase monomer with K201M mutation (protein) MSNLLTVHQNLPALPVDATSDEVRKNLMDMFRDRQAFSEHTWKMLLSVCRSWAAWCKLNNRKWFPAEPEDVRDYLLYLQARGLAVKTIQQHLGQLNMLHRRSGLPRPSDSNAVSLVMRRIRKENVDAGERAKQALAFERTDFDQVRSLMENSDRCQDIRNLAFLGIAYNTLLRIAEIARIRVKDISRTDGGRMLIHIGRTMTLVSTAGVEKALSLGVTKLVERWISVSGVADDPNNYLFCRVRKNGVAAPSATSQLSTRALEGIFEATHRLIYGAKDDSGQRYLAWSGHSARVGAARDMARAGVSIPEIMQAGGWTNVNIVMNYIRNLDSETGAMVRLLEDGD	93%
Cre recombinase monomer with R173D mutation (protein) MSNLLTVHQNLPALPVDATSDEVRKNLMDMFRDRQAFSEHTWKMLLSVCRSWAAWCKLNNRKWFPAEPEDVRDYLLYLQARGLAVKTIQQHLGQLNMLHRRSGLPRPSDSNAVSLVMRRIRKENVDAGERAKQALAFERTDFDQVRSLMENSDRCQDIRNLAFLGIAYNTLLDIAEIARIRVKDISRTDGGRMLIHIGRTKTLVSTAGVEKALSLGVTKLVERWISVSGVADDPNNYLFCRVRKNGVAAPSATSQLSTRALEGIFEATHRLIYGAKDDSGQRYLAWSGHSARVGAARDMARAGVSIPEIMQAGGWTNVNIVMNYIRNLDSETGAMVRLLEDGD	89%
